- assayNotes: in vivo
- cond: Sprague-Dawley, rat, iv, 1 mg/kg
measuredParameter: Vd at 12 h

Please give measured Vd at 12 h of the following entry: Cn1ccc2c(Oc3ccc(NC(=O)Cc4ccc(C(F)(F)F)c(F)c4)cc3)ncnc21
1.55 L/kg

* * *

- assayNotes: in vivo
- cond: Sprague-Dawley, rat, po, 10 mg/kg
measuredParameter: Cmax at 12 h
Record the result as a number with its unit.

Name the recorded Cmax at 12 h of the compound listed here: Cn1ccc2c(Oc3ccc(NC(=O)Cc4ccc(C(F)(F)F)c(F)c4)cc3)ncnc21
1.19 µg/mL

* * *

- assayNotes: in vivo
- cond: Sprague-Dawley, rat, iv, 1 mg/kg
measuredParameter: clearance at 12 h (mL/min/kg)
# output: bare number, implied unit mL/min/kg

Complete the entry with clearance at 12 h for Cn1ccc2c(Oc3ccc(NC(=O)Cc4ccc(C(F)(F)F)c(F)c4)cc3)ncnc21
13.3

* * *

- assayNotes: in vivo
- cond: Sprague-Dawley, rat, iv, 1 mg/kg
measuredParameter: Cmax at 12 h (µg/mL)
Your answer should be a plain number; it is taken to be in µg/mL.

Please look at this compound and report its Cmax at 12 h: Cn1ccc2c(Oc3ccc(NC(=O)Cc4ccc(C(F)(F)F)c(F)c4)cc3)ncnc21
1.43

* * *

- assayNotes: in vivo
- cond: Sprague-Dawley, rat, iv, 1 mg/kg
measuredParameter: AUC(0-inf) at 12 h (ng·h/mL)
Give the quantity in ng·h/mL, number only.

Return value of AUC(0-inf) at 12 h for input Cn1ccc2c(Oc3ccc(NC(=O)Cc4ccc(C(F)(F)F)c(F)c4)cc3)ncnc21 , no commentary.
1310

* * *

- assayNotes: in vivo
- cond: Sprague-Dawley, rat, po, 10 mg/kg
measuredParameter: bioavailability at 12 h (%)
Give the quantity in %, number only.

# return recorded bioavailability at 12 h for input Cn1ccc2c(Oc3ccc(NC(=O)Cc4ccc(C(F)(F)F)c(F)c4)cc3)ncnc21
111

* * *

- assayNotes: in vivo
- cond: Sprague-Dawley, rat, po, 10 mg/kg
measuredParameter: CL/F at 12 h (mL/min/kg)
Dear colleague, please return just the value in mL/min/kg, with no unit written.

Give reported CL/F at 12 h value for Cn1ccc2c(Oc3ccc(NC(=O)Cc4ccc(C(F)(F)F)c(F)c4)cc3)ncnc21
11.6
